- Test system: SU-DHL-4 cells
- assay_info: Inhibitory effect on cell viability in SU-DHL-4 cell line (Test Example 1)
- Assay type: cell-based, human
- condition_description: Homo sapiens; SU-DHL-4 (wild type) cells, 72 hours; calculated using the measurement results of test example 1; read-out: SU-DHL-4 WT IC50

compound	IC50
CCC(=O)N1c2ccccc2[C@H](Nc2ccc(-c3cnn(CCNC(=O)c4ccc(Cn5c(C(=O)OCCN(C)C)cc6c5CCCC6=O)cc4)c3)cc2)C[C@@H]1C [Compound 15d]	0.11 nM
CCC(=O)N1c2ccccc2[C@H](Nc2ccc(NC(=O)COCC(=O)Nc3ccc(C4=NCc5nnc(C)n5-c5sc(C)c(C)c54)cc3)cc2)C[C@@H]1C [Compound 14d]	0.1 nM
CCC(=O)N1c2ccccc2[C@H](Nc2ccc(C(=O)NCC(=O)CNC(=O)c3ccc(N[C@@H]4C[C@H](C)N(C(=O)CC)c5ccccc54)cc3)cc2)C[C@@H]1C [Compound 1l]	0.03 nM
CCC(=O)N1c2ccccc2[C@H](Nc2ccc(NC(=O)C3CN(C(=O)c4ccc(N[C@@H]5C[C@H](C)N(C(=O)CC)c6ccccc65)cc4)C3)cc2)C[C@@H]1C (relative stereo) [Compound 2h]	0.03 nM
Cc1sc2c(c1C)C(c1ccc(NC(=O)C#CCNC(=O)c3ccc(C4=NCc5nnc(C)n5-c5sc(C)c(C)c54)cc3)cc1)=NCc1nnc(C)n1-2 [Compound 14e]	0.21 nM

====

- Tested on: SU-DHL-4 cells
- assay_info: Inhibitory effect on cell viability in SU-DHL-4 cell line (Test Example 1)
- Format: cell-based, human
- condition_description: Homo sapiens; SU-DHL-4 (wild type) cells, 72 hours; calculated using the measurement results of test example 1; read-out: SU-DHL-4 WT IC50
pIC50: −log10 of the molar value.
This section presents molecules with their documented pIC50 values.

molecule	pIC50
Cc1sc2c(c1C)C(c1ccc(C(=O)N3CCC(NC(=O)c4ccc(C5=N[C@@H](CC(=O)OC(C)(C)C)c6nnc(C)n6-c6sc(C)c(C)c65)cc4)CC3)cc1)=NCc1nnc(C)n1-2 [Compound 14p]	9.00
CCC(=O)N1c2ccccc2[C@H](Nc2ccc(NC(=O)CCCC(=O)Nc3ccc(N[C@@H]4C[C@H](C)N(C(=O)CC)c5ccccc54)nc3)cc2)C[C@@H]1C [Compound 10k]	9.68
CCC(=O)N1c2ccccc2[C@H](Nc2ccc(-c3nnc(CNC(=O)C4CCN(Cc5cc(O)cc(-c6c(C)noc6C)c5)CC4)o3)cc2)C[C@@H]1C [Compound 12a]	9.29

====

- System: SU-DHL-4 cells
- assay_info: Inhibitory effect on cell viability in SU-DHL-4 cell line (Test Example 1)
- Type: cell-based, human
- condition_description: SU-DHL-4 cells, 72 hours, Cell Counting Kit-8; concentration showing 90% inhibition of cell viability; read-out: SU-DHL-4 Cell Viability Inhibition Rate IC90
This section presents molecules with their documented IC90 values.

molecule	scale_unit	IC90
Cc1sc2c(c1C)C(c1ccc(C(=O)NCc3cn(-c4ccc(C5=N[C@@H](CC(=O)OC(C)(C)C)c6nnc(C)n6-c6sc(C)c(C)c65)cc4)nn3)cc1)=N[C@@H](CC(=O)OC(C)(C)C)c1nnc(C)n1-2 [Compound 3b]	nM	0.18
CCC(=O)N1c2ccccc2[C@H](NC2CCC(NC(=O)C#CCNC(=O)c3ccc(C4=NCc5nnc(C)n5-c5sc(C)c(C)c54)cc3)CC2)C[C@@H]1C (relative stereo) [Compound 14c]	nM	0.34
CCC(=O)N1c2ccccc2[C@H](Nc2ccc(NC(=O)CNC(=O)N[C@H]3CC[C@H](N[C@@H]4C[C@H](C)N(C(=O)CC)c5ccccc54)CC3)cc2)C[C@@H]1C [Compound 8j]	nM	0.5

====

This section presents compounds with their documented BRET Ratio values.
- test_system: interaction between BRD2 and E3 ligase DCAF16 (Homo sapiens, UniProt P25440)
- Construct: expressed in transfected cells; host or cells: HEK293
- Sequence (P25440 whole entry): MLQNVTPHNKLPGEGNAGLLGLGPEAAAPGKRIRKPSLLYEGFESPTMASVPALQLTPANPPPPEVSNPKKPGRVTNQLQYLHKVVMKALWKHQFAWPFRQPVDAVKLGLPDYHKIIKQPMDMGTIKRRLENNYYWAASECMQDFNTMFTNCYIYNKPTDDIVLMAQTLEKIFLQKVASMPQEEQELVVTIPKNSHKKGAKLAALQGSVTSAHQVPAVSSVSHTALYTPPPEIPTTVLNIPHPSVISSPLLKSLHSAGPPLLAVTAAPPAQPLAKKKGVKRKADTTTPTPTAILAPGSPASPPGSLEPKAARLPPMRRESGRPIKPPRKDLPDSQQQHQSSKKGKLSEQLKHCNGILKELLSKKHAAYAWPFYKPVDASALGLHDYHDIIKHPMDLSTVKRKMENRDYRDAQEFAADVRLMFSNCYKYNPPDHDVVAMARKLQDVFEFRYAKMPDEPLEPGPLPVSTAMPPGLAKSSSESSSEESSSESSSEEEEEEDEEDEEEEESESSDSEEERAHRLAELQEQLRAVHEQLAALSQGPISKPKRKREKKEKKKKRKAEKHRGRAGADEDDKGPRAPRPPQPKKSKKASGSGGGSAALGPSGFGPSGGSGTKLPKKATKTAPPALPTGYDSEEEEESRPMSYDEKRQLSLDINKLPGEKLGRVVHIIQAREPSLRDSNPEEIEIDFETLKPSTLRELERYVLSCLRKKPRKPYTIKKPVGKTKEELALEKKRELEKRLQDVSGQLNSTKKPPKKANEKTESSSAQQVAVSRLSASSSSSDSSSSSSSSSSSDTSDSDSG
- Sequence (Q9NXF7 whole entry partner): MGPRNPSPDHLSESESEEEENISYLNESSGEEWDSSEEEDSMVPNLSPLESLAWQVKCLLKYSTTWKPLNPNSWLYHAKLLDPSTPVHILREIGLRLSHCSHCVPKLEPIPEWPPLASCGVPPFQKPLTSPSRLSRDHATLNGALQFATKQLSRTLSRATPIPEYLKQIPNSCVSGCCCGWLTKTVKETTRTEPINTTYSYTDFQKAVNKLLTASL
- assay_info: Verification of BET-DCAF16 interaction, NanoBRET in HEK293 cells (Test Example 7)
- Format: cell-based
- condition_description: test compound 10 μmol/L, 2 hours; HEK293 cells expressing Nluc-BRD2 and DCAF16-HaloTag; bortezomib; average of n=3
measure_name: BRET Ratio

compound	test_system	measure_name	measured
CCC(=O)N1c2ccccc2[C@H](Nc2ccc(NC(=O)CCCC(=O)NC3CCC(N[C@@H]4C[C@H](C)N(C(=O)CC)c5ccccc54)CC3)cc2)C[C@@H]1C (stereo partly drawn) [Compound 7o]	interaction between BRD2 and E3 ligase DCAF16 (Homo sapiens, UniProt P25440)	BRET Ratio	6.69
CCC(=O)N1c2ccccc2[C@H](Nc2ccc(-n3cc(CNC(=O)c4ccc(Cn5c(CC)cc6c5CCCC6=O)cc4)nn3)cc2)C[C@@H]1C [Compound 15f]	interaction between BRD2 and E3 ligase DCAF16 (Homo sapiens, UniProt P25440)	BRET Ratio	5.99
CCC(=O)N1c2ccccc2[C@H](Nc2ccc(NC(=O)CCCC(=O)Nc3ccc(Cn4c(C(=O)OCCN(C)C)cc5c4CCCC5=O)cc3)cc2)C[C@@H]1C [Compound 15a]	interaction between BRD2 and E3 ligase DCAF16 (Homo sapiens, UniProt P25440)	BRET Ratio	5.88

====

- Test system: SU-DHL-4 cells
- assay_info: Inhibitory effect on cell viability in SU-DHL-4 cell line (Test Example 1)
- Type: cell-based, human
- condition_description: SU-DHL-4 cells, 72 hours, Cell Counting Kit-8; concentration showing 90% inhibition of cell viability; read-out: SU-DHL-4 Cell Viability Inhibition Rate IC90
hey, just use 1 if measured IC90 is less than 0.3 nM, otherwise 0

molecule	test_system	assigned_class
CCC(=O)N1c2ccccc2[C@H](Nc2ccc(C(=O)NC3CCN(C(=O)c4ccc(C5=N[C@@H](CC(=O)OC(C)(C)C)c6nnc(C)n6-c6sc(C)c(C)c65)cc4)CC3)cc2)C[C@@H]1C [Compound 13j]	SU-DHL-4 cells	0
CCC(=O)N1c2ccccc2[C@H](Nc2ccc(Cc3cnc4n3CCN(C(=O)C3CCC(N[C@@H]5C[C@H](C)N(C(=O)CC)c6ccccc65)CC3)C4)cc2)C[C@@H]1C (relative stereo)	SU-DHL-4 cells	1
CCC(=O)N1c2ccccc2[C@H](Nc2ccc(NC(=O)CNC(=O)O[C@H]3CC[C@H](N[C@@H]4C[C@H](C)N(C(=O)CC)c5ccccc54)CC3)cc2)C[C@@H]1C (relative stereo)	SU-DHL-4 cells	0
CCC(=O)N1c2ccccc2[C@H](Nc2ccc(C(=O)NCC3(N[C@H]4CC[C@H](N[C@@H]5C[C@H](C)N(C(=O)CC)c6ccccc65)CC4)COC3)cc2)C[C@@H]1C	SU-DHL-4 cells	0
CCC(=O)N1c2ccccc2[C@H](Nc2ccc(-c3ccc(CNC(=O)C4CCC(N[C@@H]5C[C@H](C)N(C(=O)CC)c6ccccc65)CC4)s3)cc2)C[C@@H]1C (relative stereo)	SU-DHL-4 cells	1

====

This section presents compounds with their documented BRET Ratio values.
- test_system: interaction between BRD2 and E3 ligase DCAF16 (Homo sapiens, UniProt P25440)
- Construct: expressed in transfected cells; host or cells: HEK293
- assay_info: Verification of BET-DCAF16 interaction, comparative test with known compounds (Test Example 8)
- Type: cell-based
- condition_description: test compound 1.0 μmol/L; HEK293 cells expressing Nluc-BRD2 and DCAF16-HaloTag; MLN4924 instead of bortezomib; substrate diluted 200-fold

compound	test_system	BRET Ratio
Cc1sc2c(c1C)C(c1ccc(C(=O)NCc3cn(-c4ccc(C5=N[C@@H](CC(=O)OC(C)(C)C)c6nnc(C)n6-c6sc(C)c(C)c65)cc4)nn3)cc1)=N[C@@H](CC(=O)OC(C)(C)C)c1nnc(C)n1-2	interaction between BRD2 and E3 ligase DCAF16 (Homo sapiens, UniProt P25440)	9.69
CCC(=O)N1c2ccccc2[C@H](Nc2ccc(NC(=O)N3CCN(C(=O)C4CCC(N[C@@H]5C[C@H](C)N(C(=O)CC)c6ccccc65)CC4)CC3)cc2)C[C@@H]1C (some centres unmarked)	interaction between BRD2 and E3 ligase DCAF16 (Homo sapiens, UniProt P25440)	11.57
CCC(=O)N1c2ccccc2[C@H](Nc2ccc(-n3cc(CNC(=O)c4ccc(Cn5c(CC)cc6c5CCCC6=O)cc4)nn3)cc2)C[C@@H]1C [Compound 15f]	interaction between BRD2 and E3 ligase DCAF16 (Homo sapiens, UniProt P25440)	12.43
CCC(=O)N1c2ccccc2[C@H](Nc2ccc(NC(=O)CCCC(=O)Nc3ccc(N[C@@H]4C[C@H](C)N(C(=O)CC)c5ccccc54)cc3)cc2)C[C@@H]1C	interaction between BRD2 and E3 ligase DCAF16 (Homo sapiens, UniProt P25440)	12.62
CCC(=O)N1c2ccccc2[C@H](Nc2ccc(C(=O)NCC(=O)CNC(=O)c3ccc(N[C@@H]4C[C@H](C)N(C(=O)CC)c5ccccc54)cc3)cc2)C[C@@H]1C	interaction between BRD2 and E3 ligase DCAF16 (Homo sapiens, UniProt P25440)	14.93
